Biological target: HLA-DRB1*0301 (human)
Assay: competition binding
Conditions: modification not given
pIC50: −log10 of the molar value.
MEASURE: pIC50

> print(dat)
                  binder  measurement
1  AAVVVPSGQEQRYTC [p47]         6.01

A: RCWALSFYPAEITLT [p40]
B: RAYLEGTCVEWLRRY [p33]
C: MRYFFTSVSRPGRGE [p2*]
Rank order required: pIC50, descending. Response field: labels, in requested order.
C, A, B
(C: 5.55, A: 5.28, B: 4.46)
